// data source = patent US20250074980A1

- subject.of.test: T1, His-tagged CEACAM1 (human, UniProt P13688 35-428)
- T1 construct: 45 kDa SPR analyte; also called CEACAM1-HIS; CEACAM1 analyte
- T1 sequence: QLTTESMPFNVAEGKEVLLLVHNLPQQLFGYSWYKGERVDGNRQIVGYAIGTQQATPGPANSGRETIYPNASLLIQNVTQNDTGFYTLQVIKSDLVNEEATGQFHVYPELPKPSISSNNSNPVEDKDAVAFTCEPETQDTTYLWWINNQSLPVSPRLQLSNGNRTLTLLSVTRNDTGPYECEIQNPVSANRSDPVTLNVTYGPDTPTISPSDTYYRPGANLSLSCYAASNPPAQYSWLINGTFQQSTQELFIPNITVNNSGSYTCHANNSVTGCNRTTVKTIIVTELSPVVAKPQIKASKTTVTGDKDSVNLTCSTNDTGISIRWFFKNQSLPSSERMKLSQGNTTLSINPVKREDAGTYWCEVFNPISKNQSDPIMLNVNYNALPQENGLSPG
- assay.explanation: SPR single-cycle, supernatant IgG captured
Below, each entry is listed alongside its reported relative KD to parent.
Field format: numeric only.

VH1/CP08E05 (antibody, IgG4, V domains shown, IgG4 (S241P), kappa; also called Parent VH/CP08E05) VH: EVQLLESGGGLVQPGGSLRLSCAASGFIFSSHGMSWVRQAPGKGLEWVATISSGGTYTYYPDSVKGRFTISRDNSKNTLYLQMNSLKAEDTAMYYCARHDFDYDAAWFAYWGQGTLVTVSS VL: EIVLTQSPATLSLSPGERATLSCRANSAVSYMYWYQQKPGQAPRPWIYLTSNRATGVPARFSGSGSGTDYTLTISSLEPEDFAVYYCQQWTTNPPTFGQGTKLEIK = 4.4
VH1/CP08G09 (antibody, IgG4, V domains shown, IgG4 (S241P), kappa; also called Parent VH/CP08G09) VH: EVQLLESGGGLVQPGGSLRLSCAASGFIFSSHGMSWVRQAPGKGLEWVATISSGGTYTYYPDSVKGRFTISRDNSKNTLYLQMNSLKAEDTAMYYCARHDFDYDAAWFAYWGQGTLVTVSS VL: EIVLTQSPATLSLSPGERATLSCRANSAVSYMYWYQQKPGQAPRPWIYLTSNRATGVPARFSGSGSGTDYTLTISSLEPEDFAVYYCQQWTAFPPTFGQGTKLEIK = 5.9

Moving on to another binder below.
INPUT: Item VH1/CP08F05 (antibody, IgG4, V domains shown, IgG4 (S241P), kappa; also called Parent VH/CP08F05) VH: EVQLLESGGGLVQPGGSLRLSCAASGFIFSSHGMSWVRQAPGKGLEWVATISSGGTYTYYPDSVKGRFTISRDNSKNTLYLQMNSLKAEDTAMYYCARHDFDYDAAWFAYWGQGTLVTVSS VL: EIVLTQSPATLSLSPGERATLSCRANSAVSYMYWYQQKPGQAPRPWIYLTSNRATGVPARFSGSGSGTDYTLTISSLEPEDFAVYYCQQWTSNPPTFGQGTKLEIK : provide relative KD to parent
OUTPUT: 2.2
